# pest or weed control at 125 g/ha per record follows
- Tested on: Setaria faberi (SETFA)
- method description: Example B post-emergence herbicidal greenhouse test
- Format: in vivo
- condition label: 360 h, evaluated after 15 days, 100=total damage to plant, 0=no damage
Write the value in % as a bare number.

- compound: "Cc1cc(-c2ccc(Cl)cc2)ccc1C1=C(O)[C@H]2CC[C@H](C2)C1=O [Compound T61]"
  unit name: "%"
  pest or weed control at 125 g/ha: 90
- compound: "Cc1ccc(-c2ccc(Cl)cc2)cc1C1=C(O)[C@H]2CC[C@H](C2)C1=O [Compound T1]"
  unit name: "%"
  pest or weed control at 125 g/ha: 90
- compound: "Cc1ccc(-c2ccc(Cl)cc2Cl)cc1C1=C(O)[C@H]2CC[C@H](C2)C1=O (single isomer, unassigned) [Compound T12]"
  unit name: "%"
  pest or weed control at 125 g/ha: 80

// lookup pest or weed control at 125 g/ha for CCc1ccc(-c2ccc(Cl)cc2Cl)cc1C1=C(OC(C)=O)[C@H]2CC[C@H](C2)C1=O (single isomer, unassigned) [Compound P7] 100

Ok, now CCc1ccc(-c2ccc(Cl)c(C#N)c2)cc1C1=C(O)[C@H]2CC[C@H](C2)C1=O (single isomer, unassigned) [Compound T34] 40

Ok, now CC(=O)OC1=C(c2c(C)cc(-c3ccccc3)cc2C)C(=O)[C@@H]2CC[C@H]1C2 [Compound P1] 70

====

# pest or weed control at 250 g/ha per record follows
- Tested on: Setaria faberi (SETFA)
- method description: Example B pre-emergence herbicidal greenhouse test
- Type: in vivo
- condition label: 480 h, evaluated after 20 days, 100=total damage to plant, 0=no damage
Write the value in % as a bare number.

- molecule: "CCc1ccc(-c2ccc(Cl)c(Cl)c2)cc1C1=C(O)[C@H]2CC[C@H](C2)C1=O (single isomer, unassigned) [Compound T35]"
  unit name: "%"
  observed measurement: 40
- molecule: "Cc1ccc(-c2ccc(Cl)c(C(F)(F)F)c2)cc1C1=C(O)[C@H]2CC[C@H](C2)C1=O (single isomer, unassigned) [Compound T8]"
  unit name: "%"
  observed measurement: 70
- molecule: "CCc1ccc(-c2ccc(Cl)c(C#N)c2)cc1C1=C(O)[C@H]2CC[C@H](C2)C1=O (single isomer, unassigned) [Compound T34]"
  unit name: "%"
  observed measurement: 90
- molecule: "CCc1ccc(-c2ccc(Cl)cc2)cc1C1=C(O)[C@H]2C=C[C@H](CC2)C1=O (single isomer, unassigned) [Compound T55]"
  unit name: "%"
  observed measurement: 10
- molecule: "Cc1ccc(-c2cc(Cl)cc(Cl)c2)cc1C1=C(O)[C@H]2CC[C@H](C2)C1=O (single isomer, unassigned) [Compound T28]"
  unit name: "%"
  observed measurement: 0

Turning to the following molecule.
// lookup pest or weed control at 250 g/ha for CCc1cc(-c2ccc(Cl)cc2)ccc1C1=C(OC(C)=O)[C@@H]2CC[C@@H](C2)C1=O [Compound P3] 60

====

- Test system: Alopecurus myosuroides (ALOMY)
- method description: Example A post-emergence herbicidal glasshouse test
- Format: in vivo
- condition label: 312 h, evaluated after 13 days, 100=total damage to plant, 0=no damage
property label: pest or weed control at 250 g/ha (%)
Write the value in % as a bare number.

- compound: "Cc1ccc(-c2ccccc2F)cc1C1=C(O)[C@H]2CC[C@H](C2)C1=O (single isomer, unassigned)"
  observed measurement: 0
- compound: "CCc1ccc(-c2ccc(Cl)nc2)cc1C1=C(O)[C@H]2CC[C@H](C2)C1=O (single isomer, unassigned)"
  observed measurement: 70
- compound: "CCc1ccc(-c2ccc(Cl)cc2C(F)(F)F)cc1C1=C(O)[C@H]2CC[C@H](C2)C1=O (single isomer, unassigned)"
  observed measurement: 30
- compound: "CCc1ccc(-c2ccc(Cl)c(C)c2)cc1C1=C(O)[C@H]2CC[C@H](C2)C1=O"
  observed measurement: 60
- compound: "Cc1ccc(-c2ccc(C)c(C3=C(O)[C@H]4CC[C@H](C4)C3=O)c2)cc1 (single isomer, unassigned)"
  observed measurement: 20

Turning to the following compound.
API: value(readout=pest or weed control at 250 g/ha, system=Alopecurus myosuroides (ALOMY)) for record Cc1ccc(-c2ccc(F)cc2)cc1C1=C(O)[C@H]2CC[C@H](C2)C1=O (single isomer, unassigned) 10
